// provenance: patent US10111890B2

Assay: Phase 1 food-effect crossover study: plasma PK after single 300 mg oral dose
Format: in vivo, human
Details: human, plasma, po, 300 mg, Treatment C: high-fat nondairy meal 2 h before dosing, read-out: AUC0-24, Geometric LS Mean
Reported endpoint: AUC(0-t) (ng·h/mL)

[[record]]
chemical_string = "CN(C)c1cc(CNCC(C)(C)C)c(O)c2c1C[C@H]1C[C@H]3[C@H](N(C)C)C(O)=C(C(N)=O)C(=O)[C@@]3(O)C(O)=C1C2=O"
reported_measurement = 4300


---

Test: Phase 1 multiple oral dose study: urine pharmacokinetics
Assay type: in vivo, human
Details: human, urine, oral, all omadacycline dose groups; Day 1; read-out: Renal clearance (CLr)
Reported endpoint: CL renal

[[record]]
chemical_string = "CN(C)c1cc(CNCC(C)(C)C)c(O)c2c1C[C@H]1C[C@H]3[C@H](N(C)C)C(O)=C(C(N)=O)C(=O)[C@@]3(O)C(O)=C1C2=O"
reported_measurement = "46.7 to 70 mL/min"


---

Test: Phase 1 multiple oral dose (300, 450, 600 mg once daily x 5 days) crossover study: plasma pharmacokinetics
Conditions: human, plasma, po, 300 mg, Mean AUC0-24, 300 mg oral once daily; Day 5
Text: Thus the study was designed as a Phase 1, randomized, double-blind, 3-period, crossover study in healthy adult subjects. The study consisted of a screening period (Day −21 through Day −2), 3 baseline periods (Day −1 of each period), 3 treatment periods (Day 1 through Day 6 of each period), and a study completion visit (within 6 to 10 days after the last dose of study drug in Period 3). There was a washout of at least 5 days between the last dose in one period and the first dose in the next period. […]
Reported endpoint: AUC(0-t)

[[record]]
molecule = "CN(C)c1cc(CNCC(C)(C)C)c(O)c2c1C[C@H]1C[C@H]3[C@H](N(C)C)C(O)=C(C(N)=O)C(=O)[C@@]3(O)C(O)=C1C2=O [Omadacycline]"
reported_measurement = "9270 ng·h/mL"


---

Experiment: Prior Phase 1 studies: bioavailability / bioequivalence of oral tablet formulation
Design: species or system human
Settings: human, in vivo
Reported endpoint: bioavailability (%)

[[record]]
chemical_string = "CN(C)c1cc(CNCC(C)(C)C)c(O)c2c1C[C@H]1C[C@H]3[C@H](N(C)C)C(O)=C(C(N)=O)C(=O)[C@@]3(O)C(O)=C1C2=O"
u = "%"
reported_measurement = 35


---

Assay: Phase 1 multiple oral dose (300, 450, 600 mg once daily x 5 days) crossover study: plasma pharmacokinetics
Conditions: human, plasma, po, 300 mg, Mean AUC0-24, 300 mg oral once daily; Day 1
Reported endpoint: AUC(0-t)

[[record]]
compound = "CN(C)c1cc(CNCC(C)(C)C)c(O)c2c1C[C@H]1C[C@H]3[C@H](N(C)C)C(O)=C(C(N)=O)C(=O)[C@@]3(O)C(O)=C1C2=O [Omadacycline]"
reported_measurement = "6640 ng·h/mL"


---

Experiment: Phase 1 multiple oral dose (300, 450, 600 mg once daily x 5 days) crossover study: plasma pharmacokinetics
Details: human, plasma, po, 600 mg, Mean Cmax, 600 mg oral once daily; Day 5
Reported endpoint: Cmax (ng/mL)

[[record]]
molecule = "CN(C)c1cc(CNCC(C)(C)C)c(O)c2c1C[C@H]1C[C@H]3[C@H](N(C)C)C(O)=C(C(N)=O)C(=O)[C@@]3(O)C(O)=C1C2=O [Omadacycline]"
reported_measurement = 1310


---

Experiment: Phase 1 food-effect crossover study: plasma PK after single 300 mg oral dose
Assay type: in vivo, human
Conditions: human, plasma, po, 300 mg, Treatment A: fasted overnight, read-out: Cmax, Mean (Coefficient of Variation)
Method: These meals were to be consumed within 20 minutes. Dose administration for Treatments B, C, and D was based off of the end time of the meal. […] Geometric means were determined for AUC and Cmax. PK parameters were evaluated using non-compartmental analysis using Phoenix® WinNonlin® (Pharsight Corp, St. Louis, Mo.), Version 6.2.1. […]
Reported endpoint: Cmax (ng/mL)

[[record]]
chemical_string = "CN(C)c1cc(CNCC(C)(C)C)c(O)c2c1C[C@H]1C[C@H]3[C@H](N(C)C)C(O)=C(C(N)=O)C(=O)[C@@]3(O)C(O)=C1C2=O"
reported_measurement = 600


---

Test: Phase 1 food-effect crossover study: plasma PK after single 300 mg oral dose
Assay type: in vivo, human
Details: human, plasma, po, 300 mg, Treatment A: fasted overnight, read-out: Tmax
Reported endpoint: Tmax (h)

[[record]]
compound = "CN(C)c1cc(CNCC(C)(C)C)c(O)c2c1C[C@H]1C[C@H]3[C@H](N(C)C)C(O)=C(C(N)=O)C(=O)[C@@]3(O)C(O)=C1C2=O [Omadacycline]"
reported_measurement = 2.5

